Test system: 292921-168-R-J2-PDC KRAS tumor spheroid viability
protocolDescription: Anticancer human tumor 292921-168-R-J2-PDC patient-derived pancreatic carcinoma cell line growth inhibition [KRAS2]
measurementParameters: second compound 1 µM; first compound 0.1 µM; stronger effect = lower value; spheroids with HUVEC and MSC
measurementLabel: viability, T/C (%)
Use % as the unit, but write only the number.

**Q:** # lookup: viability, T/C of COc1cc2nccc(Oc3ccc(NC(=O)C4(C(=O)Nc5ccc(F)cc5)CC4)cc3)c2cc1OC + COc1cc2nc(C)nc(NC(C)c3cc(N)cc(C(F)(F)F)c3)c2cc1OC1CCOC1
**A:** 86.9

**Q:** For the compound CN(C)C/C=C/C(=O)Nc1cc2c(Nc3ccc(F)c(Cl)c3)ncnc2cc1O[C@H]1CCOC1 + C=CC(=O)N1CCN(c2nc(OCC3CCCN3C)nc3c2CCN(c2cccc4cccc(C)c24)C3)CC1CC#N , what viability, T/C is on record?
**A:** 34.8

**Q:** What value of measured viability, T/C is listed for CC(C)NCC(C(=O)N1CCN(c2ncnc3c2C(C)CC3O)CC1)c1ccc(Cl)cc1 (stereo not given) + COc1cc2nc(C)nc(NC(C)c3cc(N)cc(C(F)(F)F)c3)c2cc1OC1CCOC1 ?
**A:** 71.1

**Q:** Fill blank: measured viability, T/C of the compound CN(C)C/C=C/C(=O)Nc1cc2c(Nc3ccc(F)c(Cl)c3)ncnc2cc1O[C@H]1CCOC1 + COc1cc2nc(C)nc(NC(C)c3cc(N)cc(C(F)(F)F)c3)c2cc1OC1CCOC1 is ____.
**A:** 75.2

**Q:** Suppose we examine the compound Cn1nccc1Nc1nccc(-c2cc3c(s2)C(C)(C)N(CCN2CCOCC2)C3=O)n1 + C=CC(=O)N1CCN(c2nc(OCC3CCCN3C)nc3c2CCN(c2cccc4cccc(C)c24)C3)CC1CC#N ; what viability, T/C value has been reported?
**A:** 18.4

----------
Below, each of the molecules is paired with its reported viability, T/C value.
Test system: 292921-168-R-J2-PDC KRAS tumor spheroid viability
protocolDescription: Anticancer human tumor 292921-168-R-J2-PDC cell line growth inhibition [KRAS2];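 also: drug exposure lasted seven days after spheroids formed for three days; percent of DMSO vehicle control viability which is 100%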
measurementParameters: second compound 1 µM; first compound 0.1 µM; stronger effect = lower value; spheroids with HUVEC and MSC
Text: Multicellular complex tumor spheroid response to RAS pathway inhibitors in combination with a targeted agents in patient-derived cell lines with oncogenic KRAS variants from multiple cancer types A high-throughput screen of multi-cell type tumor spheroids was designed to identify active combinations of targeted small molecules and KRAS pathway inhibitors. […] Compounds. […] If the clinical Cmax for an agent had not been determined, the highest concentration tested was 10 microM. […]
Number in %, nothing else.

Use these answered entries as a reference point.
{"molecule": "CC1COCCN1c1cc(-c2ccnn2C)c2ccnc(-c3ccn[nH]3)c2n1 (stereo not given) + CC1OCC2(CCN(c3cnc(Sc4ccnc(N)c4Cl)c(N)n3)CC2)C1N", "measurementTarget": "292921-168-R-J2-PDC KRAS tumor spheroid viability", "obsValue": 13.4}
{"molecule": "CN(C)C/C=C/C(=O)Nc1cc2c(Nc3ccc(F)c(Cl)c3)ncnc2cc1O[C@H]1CCOC1 + C=CC(=O)N1CCN(c2nc(=O)n(-c3c(C)ccnc3C(C)C)c3nc(-c4c(O)cccc4F)c(F)cc23)C(C)C1", "measurementTarget": "292921-168-R-J2-PDC KRAS tumor spheroid viability", "obsValue": 87.2}
{"molecule": "CC1(C)CCC(CN2CCN(c3ccc(C(=O)NS(=O)(=O)c4ccc(NCC5CCOCC5)c([N+](=O)[O-])c4)c(Oc4cnc5[nH]ccc5c4)c3)CC2)=C(c2ccc(Cl)cc2)C1 + C=CC(=O)N1CCN(c2nc(OCC3CCCN3C)nc3c2CCN(c2cccc4cccc(C)c24)C3)CC1CC#N", "measurementTarget": "292921-168-R-J2-PDC KRAS tumor spheroid viability", "obsValue": 59.7}

**Q:** Using the record for CC1OCC2(CCN(c3cnc(Sc4ccnc(N)c4Cl)c(N)n3)CC2)C1N (stereo not given) + C=CC(=O)N1CCN(c2nc(OCC3CCCN3C)nc3c2CCN(c2cccc4cccc(C)c24)C3)CC1CC#N , report its viability, T/C.
**A:** 18.6

**Q:** Form field: reported viability, T/C of CC1COCCN1c1cc(-c2ccnn2C)c2ccnc(-c3ccn[nH]3)c2n1 (stereo not given) + CNCc1ccccc1-c1csc(C(C)Nc2nc(C)nc3cc(OC)c(OC)cc23)c1
**A:** 11.1

The reported measurements were obtained from PubChem BioAssay AID1963870.
